Where these numbers come from: the Immune Epitope Database (IEDB)

assayed system: HLA-A*02:19
test details: IEDB peptide-MHC binding, purified MHC/competitive/fluorescence; filed as Kd, often an IC50 or EC50 that approximates it; bounds were set here for any values at or beyond the usual limits of such assays
conditions used: source organism: Burkholderia vietnamiensis G4
pKd: −log10 of the molar value.
quantity kind: pKd

Enquiry: pKd of `GVNDTEAHA` on HLA-A*02:19?
Return: ≤ 4.70

====

assayed system: HLA-A*30:02
test details: IEDB peptide-MHC binding, purified MHC/competitive/radioactivity; filed as Kd, often an IC50 or EC50 that approximates it; bounds were set here for any values at or beyond the usual limits of such assays
conditions used: source organism: Triticum aestivum
quantity kind: Kd
Give me the value, and tack the unit on after it.

Enquiry: Need Kd, item `KSQVLQQSTY`
Return: 260 nM

====

assayed system: HLA-A*02:01
test details: IEDB peptide-MHC binding, purified MHC/competitive/fluorescence; filed as Kd, often an IC50 or EC50 that approximates it; bounds were set here for any values at or beyond the usual limits of such assays
conditions used: source organism: Vaccinia virus L-IPV
pKd: −log10 of the molar value.
quantity kind: pKd

Enquiry: Need pKd, item `NLFDIPLLTV`
Return: ≥ 10.00

====

assayed system: HLA-A*01:01
test details: IEDB peptide-MHC binding, purified MHC/competitive/fluorescence; filed as Kd, often an IC50 or EC50 that approximates it; bounds were set here for any values at or beyond the usual limits of such assays
conditions used: source organism: Burkholderia mallei SAVP1
pKd: −log10 of the molar value.
quantity kind: pKd

Enquiry: Need pKd, item `NVMDPMHGA`
Return: ≤ 5.30

====

assayed system: HLA-A*03:01
test details: IEDB peptide-MHC binding, purified MHC/direct/fluorescence; filed as Kd, often an IC50 or EC50 that approximates it; bounds were set here for any values at or beyond the usual limits of such assays
conditions used: source organism: Araucaria virus
quantity kind: Kd

Enquiry: Need Kd, item `AQKLATKPV`
Return: ≥ 20 µM

====

assayed system: HLA-A*02:03
test details: IEDB peptide-MHC binding, purified MHC/competitive/radioactivity; filed as Kd, often an IC50 or EC50 that approximates it; bounds were set here for any values at or beyond the usual limits of such assays
conditions used: source organism: Vaccinia virus WR
pKd: −log10 of the molar value.
Kind request: treat 6 as inclusive, so pKd at 6 or higher is 1, anything lower is 0.

Some solved cases for reference:
# primary sequence, answer label
measured = [
    ("CTFMIITSTK", 0),
    ("TTPLISFFGL", 0),
    ("RQQLEDIFM", 0),
    ("KLYIALCKVT", 1),
]

We next turn to a different sequence, shown below.
Enquiry: Item `AATKRYPGVM` with pKd of 6 or above?
Return: 0

====

assayed system: HLA-A*26:01
test details: IEDB peptide-MHC binding, purified MHC/competitive/fluorescence; filed as Kd, often an IC50 or EC50 that approximates it; bounds were set here for any values at or beyond the usual limits of such assays
conditions used: source organism: Yersinia pestis Nepal516
quantity kind: Kd
Give me the value, and tack the unit on after it.

Enquiry: Need Kd, item `VVNDFTVSY`
Return: 225 nM

====

assayed system: HLA-A*03:01
test details: IEDB peptide-MHC binding, purified MHC/competitive/fluorescence; filed as Kd, often an IC50 or EC50 that approximates it; bounds were set here for any values at or beyond the usual limits of such assays
conditions used: source organism: Yersinia pestis Nepal516
quantity kind: pKd
Value format note: pKd is -log10 of concentration (mol/L); just state the number.

Enquiry: Need pKd, item `VVNDFTVSY`
Return: 6.92

====

This section presents sequences with their documented pKd values.
assayed system: HLA-A*11:01
test details: IEDB peptide-MHC binding, purified MHC/direct/fluorescence; filed as Kd, often an IC50 or EC50 that approximates it; bounds were set here for any values at or beyond the usual limits of such assays
conditions used: source organism: SARS-CoV1
pKd: −log10 of the molar value.

# primary sequence, assayed system, pKd
measured = [
    ("KQYNVTQAF", "HLA-A*11:01", "≤ 4.55"),
    ("LSDDAVVCY", "HLA-A*11:01", "≤ 4.65"),
]

Attention now shifts to the item below.
Enquiry: Need pKd, item `LQSLENVAY`
Return: ≤ 4.35

====

assayed system: HLA-A*26:01
test details: IEDB peptide-MHC binding, purified MHC/direct/fluorescence; filed as Kd, often an IC50 or EC50 that approximates it; bounds were set here for any values at or beyond the usual limits of such assays
conditions used: source organism: Vibrio parahaemolyticus
This section presents sequences with their documented Kd values.

# primary sequence, reported measurement
records = [
    ("GRNSRFPDK", "≥ 20 µM"),
]

Enquiry: Need Kd, item `EEDLPVTWR`
Return: ≥ 20 µM

====

assayed system: HLA-B*27:03
test details: IEDB peptide-MHC binding, purified MHC/competitive/fluorescence; filed as Kd, often an IC50 or EC50 that approximates it; bounds were set here for any values at or beyond the usual limits of such assays
conditions used: source organism: Homo sapiens
quantity kind: Kd

# primary sequence, quantity kind, reported measurement
data = [
    ("RTDNGGWAH", "Kd", "≥ 20 µM"),
]

Attention now shifts to the item below.
Enquiry: Need Kd, item `GTEYRLTLY`
Return: ≥ 20 µM

====

assayed system: HLA-B*07:02
test details: IEDB peptide-MHC binding, purified MHC/competitive/fluorescence; filed as Kd, often an IC50 or EC50 that approximates it; bounds were set here for any values at or beyond the usual limits of such assays
conditions used: source organism: Cryptosporidium parvum Iowa II
quantity kind: Kd

Enquiry: Kd of `TVFRNQNRV` on HLA-B*07:02?
Return: ≥ 5 µM

====

assayed system: HLA-B*57:01
test details: IEDB peptide-MHC binding, purified MHC/competitive/fluorescence; filed as Kd, often an IC50 or EC50 that approximates it; bounds were set here for any values at or beyond the usual limits of such assays
conditions used: source organism: Bacillus anthracis str. Ames
quantity kind: Kd

Enquiry: Need Kd, item `VILYFMYRK`
Return: ≥ 20 µM

====

assayed system: HLA-A*30:01
test details: IEDB peptide-MHC binding, purified MHC/competitive/radioactivity; filed as Kd, often an IC50 or EC50 that approximates it; bounds were set here for any values at or beyond the usual limits of such assays
conditions used: source organism: Vaccinia virus WR
quantity kind: pKd
Value format note: pKd is -log10 of concentration (mol/L); just state the number.

Enquiry: Need pKd, item `HAIVINPFV`
Return: 6.66

====

assayed system: HLA-A*68:01
test details: IEDB peptide-MHC binding, purified MHC/competitive/radioactivity; filed as Kd, often an IC50 or EC50 that approximates it; bounds were set here for any values at or beyond the usual limits of such assays
conditions used: source organism: Lymphocytic choriomeningitis virus (strain Armstrong)
quantity kind: Kd (µM)
Field: numeric (µM). Do not append units.

Enquiry: Kd of `KVILSEISFH` on HLA-A*68:01?
Return: 12.7

====

assayed system: HLA-B*73:01
test details: IEDB peptide-MHC binding, purified MHC/direct/fluorescence; filed as Kd, often an IC50 or EC50 that approximates it; bounds were set here for any values at or beyond the usual limits of such assays
conditions used: source organism: Vibrio parahaemolyticus AQ3810
pKd: −log10 of the molar value.
quantity kind: pKd

Enquiry: pKd of `GRNSRFPDK` on HLA-B*73:01?
Return: ≤ 4.70

====

assayed system: HLA-A*11:01
test details: IEDB peptide-MHC binding, purified MHC/competitive/radioactivity; filed as Kd, often an IC50 or EC50 that approximates it; bounds were set here for any values at or beyond the usual limits of such assays
conditions used: source organism: Dengue virus 3 Martinique/1243/1999
This section presents sequences with their documented pKd values.
Value format note: pKd is -log10 of concentration (mol/L); just state the number.

# primary sequence, assayed system, pKd
records = [
    ("KSGAIKVLK", "HLA-A*11:01", 6.82),
]

Attention now shifts to the item below.
Enquiry: Need pKd, item `CTNTFVLKK`
Return: 7.11

====

assayed system: HLA-A*02:12
test details: IEDB peptide-MHC binding, purified MHC/direct/fluorescence; filed as Kd, often an IC50 or EC50 that approximates it; bounds were set here for any values at or beyond the usual limits of such assays
conditions used: source organism: Bacillus cereus 03BB108
quantity kind: Kd (µM)
Field: numeric (µM). Do not append units.

Enquiry: Need Kd, item `GMFDWESMK`
Return: 0.744

====

assayed system: HLA-B*15:42
test details: IEDB peptide-MHC binding, purified MHC/competitive/fluorescence; filed as Kd, often an IC50 or EC50 that approximates it; bounds were set here for any values at or beyond the usual limits of such assays
conditions used: source organism: Yersinia pseudotuberculosis IP 31758
pKd: −log10 of the molar value.
quantity kind: pKd

Enquiry: pKd of `FQWWRSHPL` on HLA-B*15:42?
Return: ≤ 5.30
